- Test settings: in ethylbenzene, 313.15 K
Attribute measured: solubility (mole fraction)

So for `N#CCc1ccc([N+](=O)[O-])cc1` , the logged solubility (mole fraction) turned out to be 0.0201

###

- Test settings: in acetic acid, 318.15 K
Attribute measured: solubility (mole fraction)

So for `N#CCc1ccc([N+](=O)[O-])cc1` , the logged solubility (mole fraction) turned out to be 0.0319

###

- Test settings: in ethyl acetate, 308.15 K
Attribute measured: solubility (mole fraction)

So for `N#CCc1ccc([N+](=O)[O-])cc1` , the logged solubility (mole fraction) turned out to be 0.182

###

- Test settings: in n-propanol, 303.15 K
Attribute measured: solubility (mole fraction)
In your answer, state the number alone without any accompanying words.

So for `N#CCc1ccc([N+](=O)[O-])cc1` , the logged solubility (mole fraction) turned out to be 0.0042

###

- Test settings: in ethyl acetate, 288.15 K
Attribute measured: solubility (mole fraction)
In your answer, state the number alone without any accompanying words.

So for `N#CCc1ccc([N+](=O)[O-])cc1` , the logged solubility (mole fraction) turned out to be 0.14

###

- Test settings: in water, 303.15 K
Attribute measured: solubility (mole fraction)
In your answer, state the number alone without any accompanying words.

So for `N#CCc1ccc([N+](=O)[O-])cc1` , the logged solubility (mole fraction) turned out to be 4.27e-05

###

- Test settings: in n-propanol, 313.15 K
Attribute measured: solubility (mole fraction)
In your answer, state the number alone without any accompanying words.

So for `N#CCc1ccc([N+](=O)[O-])cc1` , the logged solubility (mole fraction) turned out to be 0.00673

###

- Test settings: in toluene, 278.15 K
Attribute measured: solubility (mole fraction)
In your answer, state the number alone without any accompanying words.

So for `N#CCc1ccc([N+](=O)[O-])cc1` , the logged solubility (mole fraction) turned out to be 0.00791

###

- Test settings: in ethylbenzene, 308.15 K
Attribute measured: solubility (mole fraction)
In your answer, state the number alone without any accompanying words.

So for `N#CCc1ccc([N+](=O)[O-])cc1` , the logged solubility (mole fraction) turned out to be 0.0163

###

- Test settings: in toluene, 298.15 K
Attribute measured: solubility (mole fraction)

So for `N#CCc1ccc([N+](=O)[O-])cc1` , the logged solubility (mole fraction) turned out to be 0.0177

###

- Test settings: in isobutanol, 308.15 K
Attribute measured: solubility (mole fraction)
In your answer, state the number alone without any accompanying words.

So for `N#CCc1ccc([N+](=O)[O-])cc1` , the logged solubility (mole fraction) turned out to be 0.00383

###

- Test settings: in n-propanol, 298.15 K
Attribute measured: solubility (mole fraction)

So for `N#CCc1ccc([N+](=O)[O-])cc1` , the logged solubility (mole fraction) turned out to be 0.00332

###

- Test settings: in ethylbenzene, 323.15 K
Attribute measured: solubility (mole fraction)
In your answer, state the number alone without any accompanying words.

So for `N#CCc1ccc([N+](=O)[O-])cc1` , the logged solubility (mole fraction) turned out to be 0.0284

###

- Test settings: in 1,4-dioxane, 313.15 K
Attribute measured: solubility (mole fraction)

So for `N#CCc1ccc([N+](=O)[O-])cc1` , the logged solubility (mole fraction) turned out to be 0.134

###

- Test settings: in methanol, 328.15 K
Attribute measured: solubility (mole fraction)
In your answer, state the number alone without any accompanying words.

So for `N#CCc1ccc([N+](=O)[O-])cc1` , the logged solubility (mole fraction) turned out to be 0.0212

###

- Test settings: in ethanol, 328.15 K
Attribute measured: solubility (mole fraction)
In your answer, state the number alone without any accompanying words.

So for `N#CCc1ccc([N+](=O)[O-])cc1` , the logged solubility (mole fraction) turned out to be 0.0149

###

- Test settings: in n-propanol, 278.15 K
Attribute measured: solubility (mole fraction)

So for `N#CCc1ccc([N+](=O)[O-])cc1` , the logged solubility (mole fraction) turned out to be 0.00133

###

- Test settings: in acetonitrile, 323.15 K
Attribute measured: solubility (mole fraction)

So for `N#CCc1ccc([N+](=O)[O-])cc1` , the logged solubility (mole fraction) turned out to be 0.169

###

- Test settings: in isobutanol, 318.15 K
Attribute measured: solubility (mole fraction)
In your answer, state the number alone without any accompanying words.

So for `N#CCc1ccc([N+](=O)[O-])cc1` , the logged solubility (mole fraction) turned out to be 0.0063

###

- Test settings: in 1,4-dioxane, 323.15 K
Attribute measured: solubility (mole fraction)
In your answer, state the number alone without any accompanying words.

So for `N#CCc1ccc([N+](=O)[O-])cc1` , the logged solubility (mole fraction) turned out to be 0.193

###

- Test settings: in isopropanol, 298.15 K
Attribute measured: solubility (mole fraction)
In your answer, state the number alone without any accompanying words.

So for `N#CCc1ccc([N+](=O)[O-])cc1` , the logged solubility (mole fraction) turned out to be 0.00252

###

- Test settings: in 1,4-dioxane, 298.15 K
Attribute measured: solubility (mole fraction)
In your answer, state the number alone without any accompanying words.

So for `N#CCc1ccc([N+](=O)[O-])cc1` , the logged solubility (mole fraction) turned out to be 0.0715

###

- Test settings: in isopropanol, 318.15 K
Attribute measured: solubility (mole fraction)
In your answer, state the number alone without any accompanying words.

So for `N#CCc1ccc([N+](=O)[O-])cc1` , the logged solubility (mole fraction) turned out to be 0.00683

###

- Test settings: in ethylbenzene, 318.15 K
Attribute measured: solubility (mole fraction)
In your answer, state the number alone without any accompanying words.

So for `N#CCc1ccc([N+](=O)[O-])cc1` , the logged solubility (mole fraction) turned out to be 0.0238

###

- Test settings: in acetonitrile, 293.15 K
Attribute measured: solubility (mole fraction)
In your answer, state the number alone without any accompanying words.

So for `N#CCc1ccc([N+](=O)[O-])cc1` , the logged solubility (mole fraction) turned out to be 0.0628

###

- Test settings: in ethyl acetate, 318.15 K
Attribute measured: solubility (mole fraction)

So for `N#CCc1ccc([N+](=O)[O-])cc1` , the logged solubility (mole fraction) turned out to be 0.21

###

- Test settings: in isobutanol, 328.15 K
Attribute measured: solubility (mole fraction)
In your answer, state the number alone without any accompanying words.

So for `N#CCc1ccc([N+](=O)[O-])cc1` , the logged solubility (mole fraction) turned out to be 0.0102

###

- Test settings: in cyclohexane, 283.15 K
Attribute measured: solubility (mole fraction)
In your answer, state the number alone without any accompanying words.

So for `N#CCc1ccc([N+](=O)[O-])cc1` , the logged solubility (mole fraction) turned out to be 9.17e-05

###

- Test settings: in isobutanol, 323.15 K
Attribute measured: solubility (mole fraction)
In your answer, state the number alone without any accompanying words.

So for `N#CCc1ccc([N+](=O)[O-])cc1` , the logged solubility (mole fraction) turned out to be 0.00806

###

- Test settings: in acetonitrile, 303.15 K
Attribute measured: solubility (mole fraction)
In your answer, state the number alone without any accompanying words.

So for `N#CCc1ccc([N+](=O)[O-])cc1` , the logged solubility (mole fraction) turned out to be 0.0899

###

- Test settings: in isobutanol, 293.15 K
Attribute measured: solubility (mole fraction)
In your answer, state the number alone without any accompanying words.

So for `N#CCc1ccc([N+](=O)[O-])cc1` , the logged solubility (mole fraction) turned out to be 0.00178

###

- Test settings: in 2-butanone, 308.15 K
Attribute measured: solubility (mole fraction)

So for `N#CCc1ccc([N+](=O)[O-])cc1` , the logged solubility (mole fraction) turned out to be 0.109

###

- Test settings: in 2-butanone, 283.15 K
Attribute measured: solubility (mole fraction)
In your answer, state the number alone without any accompanying words.

So for `N#CCc1ccc([N+](=O)[O-])cc1` , the logged solubility (mole fraction) turned out to be 0.0534

###

- Test settings: in cyclohexane, 303.15 K
Attribute measured: solubility (mole fraction)
In your answer, state the number alone without any accompanying words.

So for `N#CCc1ccc([N+](=O)[O-])cc1` , the logged solubility (mole fraction) turned out to be 0.000209

###

- Test settings: in cyclohexane, 323.15 K
Attribute measured: solubility (mole fraction)
In your answer, state the number alone without any accompanying words.

So for `N#CCc1ccc([N+](=O)[O-])cc1` , the logged solubility (mole fraction) turned out to be 0.000505

###

- Test settings: in isobutanol, 283.15 K
Attribute measured: solubility (mole fraction)

So for `N#CCc1ccc([N+](=O)[O-])cc1` , the logged solubility (mole fraction) turned out to be 0.00108

###

- Test settings: in 1,4-dioxane, 288.15 K
Attribute measured: solubility (mole fraction)
In your answer, state the number alone without any accompanying words.

So for `N#CCc1ccc([N+](=O)[O-])cc1` , the logged solubility (mole fraction) turned out to be 0.0461
